This collection of values is drawn from PubChem BioAssay (NCI).

# System: HL-60(TB) leukemia
# Assay Protocol: NCI tumour cell line growth inhibition, 48 h
Where a SMILES comes first, the peptide text is derived from it. [ ]: non-standard residue; d: D form. The star is where a group is joined. NMeF = CN[CH](Cc1ccccc1)C(=O)O; NMeV = CN[CH](C(=O)O)C(C)C; Boc = CC(C)(C)OC(=O)*; OBn = c1ccc(CO*)cc1
Lab note: compare TGI against 7 µM. Equal or greater, write fulfilled. Smaller, write not fulfilled.

>  <Molecule>
O=C1C=CC2(O[C@@H](Cc3ccccc3)[C@H](Cc3ccccc3)O2)C(SC(=O)c2ccccc2)C1 (stereo not given in full)

>  <Assigned Class>
not fulfilled

$$$$
>  <Molecule>
CC1=C(C(=O)Nc2ccccc2C)C(c2ccc(N(C)C)cc2)C(C(=O)Nc2ccccc2C)=C(C)N1

>  <Assigned Class>
fulfilled

$$$$
>  <Molecule>
CC(=O)Nc1ccc(-c2nnc(SCC(=O)Nc3ccccc3[N+](=O)[O-])o2)cc1

>  <Assigned Class>
fulfilled

$$$$
>  <Molecule>
Cc1ccc(C(=O)Nc2ccc(CN3CCN(C)CC3)c(C(F)(F)F)c2)cc1C#Cc1cncc2ncccc12

>  <Assigned Class>
not fulfilled

$$$$
>  <Molecule>
O=C([C@H](O)[C@@H](O)c1ccc(Br)cc1)C12CC3CC(CC(C3)C1)C2

>  <Assigned Class>
fulfilled

$$$$
>  <Molecule>
C(=C1\CCC/C(=C/c2ccccc2)C1=NNc1ccccc1)/c1ccccc1

>  <Assigned Class>
fulfilled

$$$$
>  <Molecule>
Cc1ccc(S(=O)(=O)n2cc(-c3cnc(N)c(Br)n3)c3ccccc32)cc1

>  <Assigned Class>
not fulfilled

$$$$
>  <Molecule>
NNC(=O)CC(=O)Nc1ccccc1F

>  <Assigned Class>
fulfilled

$$$$
>  <Molecule>
C=C1C(=O)[C@]23[C@H](O)[C@H]1CC[C@H]2[C@@]12CO[C@@]3(O)C[C@@H]1C(C)(C)CC[C@@H]2O

>  <Assigned Class>
fulfilled

$$$$
>  <Molecule>
CCCNC(=O)c1cc2ccccc2cc1C(=O)OC

>  <Assigned Class>
fulfilled

$$$$
>  <Molecule>
CC(C)C(NC(=O)OC(C)(C)C)C(=O)N(C)C(Cc1ccccc1)C(=O)N(C)C(C(=O)N(C)C(C(=O)OCc1ccccc1)C(C)C)C(C)C (stereo not given) (Boc-V[NMeF][NMeV][NMeV]-OBn; configuration not given here)

>  <Assigned Class>
fulfilled

$$$$
>  <Molecule>
CC1(C)Oc2ccc(Cl)cc2C12CC2

>  <Assigned Class>
fulfilled

$$$$
>  <Molecule>
COc1ccc(-c2nnc3n(C)c(=O)c4ccccc4n23)cc1O

>  <Assigned Class>
not fulfilled

$$$$
>  <Molecule>
CC(O)(c1ccccc1)c1nccc2ccccc12 (stereo not given)

>  <Assigned Class>
fulfilled

$$$$
>  <Molecule>
COC(=O)C1(NC(=O)C(N)CC(=O)O)C(C)C1C (stereo not given)

>  <Assigned Class>
fulfilled

$$$$
>  <Molecule>
NC(=O)Nc1ccc2ncnc(Nc3ccc(Cl)cc3)c2c1

>  <Assigned Class>
fulfilled

$$$$
>  <Molecule>
CCCCCCC(CCl)c1sc(-c2csc(CCNC(=O)OC(C)(C)C)n2)nc1C(=O)OC (stereo not given)

>  <Assigned Class>
fulfilled

$$$$
>  <Molecule>
CCOC(=O)/C=C(/C(=O)OCC)n1c(=O)c(C)cn(C2CC(N=[N+]=[N-])C(CO)O2)c1=O (stereo not given)

>  <Assigned Class>
not fulfilled

$$$$
>  <Molecule>
O=C1c2cnccc2Cc2cccc3c2N1c1ccccc1S3

>  <Assigned Class>
fulfilled

$$$$
